Documented growth inhibition across a set of molecules
# TEST METHOD NOTES: NCI Yeast Anticancer Drug Screen. Data for the sgs1 mgt1 strain (AID 161);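 note: 0% = growth of cultures given vehicle only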
# COND: S. cerevisiae sgs1 mgt1 strain, at 5.0 µM (retest, dose inferred, filed as 0.5), active compounds read high
The panel holds about 79,000 compounds, 15% with a hit somewhere; the sample as a whole holds those more often.
# output: bare number, implied unit %

MOLECULE: Cc1ccc(NC(=O)CCc2nnc(N)n2N)cc1
growth inhibition, %: -6
--
MOLECULE: C[N+](C)(CCO)Cc1ccccc1
growth inhibition, %: -5

Given CC1=C2CCC3C(CCC4(C)C(C(C)CCCC(C)C)CCC34)C2(C)CCC1=O (configuration not stated) , state its recorded growth inhibition. 4

Given CNCC(OB(c1ccccc1)c1ccccc1)c1ccccc1 (configuration not stated) , state its recorded growth inhibition. 1

Given BrC(Br)([P+](c1ccccc1)(c1ccccc1)c1ccccc1)[P+](c1ccccc1)(c1ccccc1)c1ccccc1 , state its recorded growth inhibition. 4

Given Clc1ccc2ns[s+]c2c1 , state its recorded growth inhibition. 12

Given O=C(NC(OCc1ccccc1)(C(F)(F)F)C(F)(F)F)OCc1ccccc1 , state its recorded growth inhibition. -9

Given Nc1cccc2c1C(=O)c1cccc(Cl)c1C2=O , state its recorded growth inhibition. 0

Given CC/C(=N\O)c1ccc2cc(Br)c3ccccc3c2c1 , state its recorded growth inhibition. 10

Given CS(=O)(=O)OC1C(O)C(n2cnc3c(N)ncnc32)C(O)C(OS(C)(=O)=O)C1OS(C)(=O)=O (configuration not stated) , state its recorded growth inhibition. -2

Given Nc1ccc(C(=O)N/C(=C\C=C\c2ccco2)c2nc3c4c(ccc3[nH]2)C(=O)c2ccccc2C4=O)cc1 , state its recorded growth inhibition. 3
